Measured log10 of IC50, listed per entry.
Tested on: Trypanosoma brucei brucei
Test: Antitrypanosomal activity against Trypanosoma brucei brucei
Format: functional, organism-based
// do not treat as linear: log10 of IC50, unit nM

Worked cases, answers included:
CCN(CC)CCCNc1c2ccc(Cl)cc2[n+](C)c2c1[nH]c1ccccc12.[Cl-]; 1.30
CCN(CC)CCCNc1c2ccccc2[n+](C)c2c1[nH]c1ccccc12.[Cl-]; 1.70
C[n+]1c2ccccc2cc2[n-]c3ccccc3c21.Cl [CRYPTOLEPINE HYDROCHLORIDE]; 3.30
C[n+]1c2ccccc2c(NC2CCN(Cc3ccccc3O)CC2)c2[nH]c3ccccc3c21.[Cl-]; 1.60
CC(C)NCCCNc1c2ccccc2[n+](C)c2c1[nH]c1ccccc12.[Cl-]; 2.00
CN(C)CCCNc1c2ccccc2[n+](C)c2c1[nH]c1ccccc12.[Cl-]; 1.48
C[n+]1c2ccccc2c(NCCCN2CCCCC2)c2[nH]c3ccccc3c21.[Cl-]; 1.78

Exercise: Consider the compound `CN(C)CC(C)(C)CNc1c2ccccc2[n+](C)c2c1[nH]c1ccccc12.[Cl-]` and give its measured log10 of IC50.
Solution: 2.48
